Each entry below lists one item and its recorded Enzyme Activity Endpoint Assay: Fab′2 value.
- testTarget: pooled human IgG
metricName: Enzyme Activity Endpoint Assay: Fab′2 (ng/µL)

{"protein": "PRT-26 (protein) MANQEIRYSEVTPYHVTSVWTKGVTPPANFTQGEDVFHAPYVANQGWYDITKTFNGKDDLLCGAATAGNMLHWWFDQNKDQIERYLKEHPEKQKINFNGEQMFDVKEAIDTKDSQTDSKLFEYFKEKAFPYLSTKHLGVFPDHVLDMFINGYRLSLTNHGPTPVKEGSKDPRGGIFDAVFTRGDQSKLLTSRHDFKEKTLKEISDLIKQELTEGKALGLSHTYANVRINHVINLWGADFDSEGNLKAIYVTDSDSNASIGMKKYFVGVNSAGKVAISAKEIKEDNIGAQVLGLFTLSTGQDIWNQTN", "testValue": 40}
{"protein": "PRT-11 (protein) MANQEIRYSEETPYHVTSVWTKGVTPPANFTQGEDVFHAPYVANQGWYDITKTFNGKDDLLCGAATAGNMLHWWFDQNKDQIEKYLKEHPEKQKINFNGEQMFDVKEAIDTKDSQTDSKLFEYFKEKAFPYLSTKHLGVFPDHVIDMFINGYRLSLTNHGPTPVKEQSKDPRGGIFDAVFTRGDQSKLLTSRHDFKEKTLKEISDLIKKELSEGKALGLSHTYANVRINHVINLWGADFDSNGNLKAIYVTDSDSNASIGMKKYFVGVNSAGKVAISAKEIKEDNIGAQVLGLFTLSTGQDIWNQTN", "testValue": 40}
